Tested on: TK-10
Assay: NCI tumour cell line growth inhibition, 48 h
Activity calls are given as the source filed them. Cut-off read from the data, not from the text of the source: active = GI50 up to about 1.1 µM and inactive = higher.
Outcome codes: active, inactive

Molecule | Group
C=CCSc1nc2ccccc2c(=O)n1Cc1ccco1 | inactive
C/C(=C1/N=C(c2cc([N+](=O)[O-])ccc2Cl)N(c2cccc(C)c2)C1=O)c1cc2ccccc2oc1=O | inactive
CCOC(=O)c1nc2ccc(C(F)(F)F)cc2nc1Oc1ccc(C(=O)OC)cc1 | inactive
COc1cc2c(cc1OC)NC(=O)NC(Cc1ccc3c(c1)OCO3)CC2 (stereo not given) | inactive
CN(C)/N=C1\CC(c2ccccc2)C(C#N)(C#N)C1(C#N)C#N (stereo not given) | inactive
COC1OC(C(C)O)C2OC(C)(C)OC12 (stereo not given) | inactive
CCOC(=O)c1cc([N+](=O)[O-])c(Sc2ncnc3nc[nH]c23)c([N+](=O)[O-])c1 | active
COC(=O)C(=O)C(C(=O)C(=O)Nc1ccc(C)cc1)c1nc2ccc(C(=O)c3ccccc3)cc2nc1O (stereo not given) | inactive
Cc1cccc(NC(=O)Cc2nc3ccccc3s2)c1C | inactive
COc1cc(/C=C2\C(=O)N(c3cccc([N+](=O)[O-])c3)C(c3ccccc3)S2(=O)=O)cc(OC)c1OC (stereo not given) | inactive
CCC(C)NC1=C(NC(C)=O)C(=O)c2ccccc2C1=O (stereo not given) | inactive
Nc1n[n+]2cc(-c3ccccc3)n(CC(=O)c3ccccc3)c2s1 | inactive
Cc1ccc2occ/c(=N\Nc3ccccc3)c2c1 | inactive
Nc1nc(Cl)cc(NCC2(CO)CCCCC2)n1 | inactive
Cc1ccc(/C=N/NS(=O)(=O)c2ccccc2)c(C)c1 | inactive
O=C(Cn1ccnc1[N+](=O)[O-])N(CCO)CCO | inactive
CCOc1ccccc1NC(=O)CCc1nnc(S)[nH]1 | inactive
O=S(=O)(c1ccccc1)C1(C2(S(=O)(=O)c3ccccc3)CCN=N2)CCN=N1 (stereo not given) | inactive
C=CCN1C(=O)/C(=C/c2ccco2)N=C1SC1OC(COC(C)=O)C(OC(C)=O)C(OC(C)=O)C1OC(C)=O (stereo not given) | inactive
NCc1ccccc1C1CSCSC1 | inactive

The reported measurements were obtained from ChEMBL document CHEMBL1201862.
